# TARGET OR TEST SYSTEM: T1, human 5T4ECDHis (mature protein of SEQ ID NO: 99) (human, UniProt Q13641 32-355)
# T1 construct: ECD of human 5T4 (aa 1-355 of Uniprot Q13641) with C-terminal His tag; residues 1-31 are the signal peptide; also called ECD of human 5T4 with a C-terminal His tag
# T1 sequence: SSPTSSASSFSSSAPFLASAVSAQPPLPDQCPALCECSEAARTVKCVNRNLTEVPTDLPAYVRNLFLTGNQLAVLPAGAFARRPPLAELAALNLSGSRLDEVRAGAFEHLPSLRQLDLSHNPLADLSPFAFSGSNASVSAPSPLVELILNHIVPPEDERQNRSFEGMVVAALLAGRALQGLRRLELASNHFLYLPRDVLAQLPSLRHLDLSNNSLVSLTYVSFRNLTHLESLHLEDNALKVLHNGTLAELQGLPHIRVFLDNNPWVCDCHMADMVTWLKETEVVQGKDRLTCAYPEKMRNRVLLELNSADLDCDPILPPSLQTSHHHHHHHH
# ASSAY METHOD TEXT: BLI, antibody on anti-human IgG Fc Capture biosensor, antigen in solution
pKd: −log10 of the molar value.
Below, each entry is listed with its recorded pKd.

BINDER	pKd
IgG1-5T4-226-FEAR (antibody, V domains shown, Monospecific, bivalent human IgG1 kappa with L234F, L235E, D265A, K409R (FEAR); also called IgG1-5T4-226-FEAR-FITC) VH: QVQLQQWGAGLLKPSETLSLTCAVYGGSFSGYYWSWIRQPPGKGLEWIGEIDHSGSTNYNPSLKSRVTISVDTSKNQFSLKLSSVTAADTAVYYCAAWFGELWDYYYGMDVWGQGTTVTVSS VL: EIVLTQSPATLSLSPGERATLSCRASQSVSSFLAWYQQKPGQAPRLLIYDASNRATGIPARFSGSGSGTDFTLTISSLEPEDFAVYYCQQRSNWPLTFGQGTRLEIK	8.60
IgG1-5T4-207-FEAR (antibody, V domains shown, Monospecific, bivalent IgG1 FEAR) VH: QVQLQQWGAGLLKPSETLSLTCAVYGGSFSGYYWTWIRQPPGKGLEWIGEIDHSESTNYNPSLKSRVTISVDTSKNQFSLKLSSVTAADTAVYYCAGWFGELYHYYYGMDVWGQGTTVTVSS VL: EIVLTQSPATLSLSPGERATLSCRASQSVSSYLAWYQQKPGQAPRLLIYDASNRATGIPARFSGSGSGTDFTLTISSLEPEDFAVYYCQQRSNWPLTFGGGTKVEIKR	8.59
IgG1-5T4-H8-FEAR (antibody, V domains shown, Based on 5T4 antibody H8 from Wyeth (WO 2007/106744); IgG1 with L234F, L235E, D265A, K409R (FEAR); also called IgG1-5T4-HS-FEAR; IgG1-5T4-H8-FEAR-FITC) VH: EVQLQQSGPDLVKPGASVKISCKASGYSFTGYYMHWVKQSHGKSLEWIGRINPNNGVTLYNQKFKDKAILTVDKSSTTAYMELRSLTSEDSAVYYCARSTMITNYVMDYWGQVTSVTVSS VL: SIVMTQTPTFLLVSAGDRVTITCKASQSVSNDVAWYQQKPGQSPTLLISYTSSRYAGVPDRFIGSGYGTDFTFTISTLQAEDLAVYFCQQDYNSPPTFGGGTKLEIK	8.89
IgG1-5T4-106-FEAR (antibody, V domains shown, Monospecific, bivalent human IgG1 kappa with L234F, L235E, D265A, K409R (FEAR)) VH: EVQLVQSGAEVKKPGESLKISCKGSGYRFTSYWIGWVRQMPGKGLEWMGIIYPGDSDARYSPSFQGQVTISADKSISTAYLQWSSLKASDTGMYYCARSVLFDYWGQGTLVTVSS VL: AIQLTQSPSSLSASVGDRVTITCRASQGISSALAWYQQKPGKAPKLLIYDVSNLESGVPSRFSGSGSGTDFTLTISSLQPEDFATYYCQQFNSYPHTFGQGTKLEIK	8.26

// provenance: patent US20230257479A1
